Record form. Attribute: MIC. Fill in for each entry.
Provide the reading as a plain figure in µg/mL.

[in] Name the recorded MIC of CCn1cc(C(=O)O)c(=O)c2cc(F)c(N3CCN(S(=O)(=O)c4ccc(C)cc4)CC3)c(F)c21 [Example 4] , assay system S. aureus IFO 13276.
[out] 0.78

[in] Name the recorded MIC of CCn1cc(C(=O)O)c(=O)c2cc(F)c(N3CCNCC3)c(F)c21 [Control drug, reference compound] , assay system S. aureus IFO 13276.
[out] 0.39

[in] Name the recorded MIC of CCn1cc(C(=O)O)c(=O)c2cc(F)c(N3CCN(S(=O)(=O)c4ccc(F)cc4)CC3)c(F)c21 [Example 7] , assay system S. aureus IFO 13276.
[out] 0.78

[in] Name the recorded MIC of CCn1cc(C(=O)O)c(=O)c2cc(F)c(N3CCN(S(=O)(=O)c4ccc(N)cc4)CC3)c(F)c21 [Example 2] , assay system S. aureus IFO 13276.
[out] 0.2
